System: P388
experiment summary: Animal weight loss was tested for P388 Lymphocytic Leukemia and measured for change in weight, in treated and control mice at dose of 12.5 mg/kg
Format: functional, Mus musculus
Set-up: unit not given here
Record form. Attribute: Weight loss. Fill in for each entry.

molecular_string=CNC(=O)OCc1c(-c2ccccc2)c(-c2ccccc2)n(-c2ccc(OC)cc2)c1COC(=O)NC measured_on=P388 assay_value=0.3
molecular_string=CNC(=O)OCc1c(-c2ccccc2)c(-c2ccccc2)n(C)c1COC(=O)NC measured_on=P388 assay_value=-1.4
molecular_string=CNC(=O)OCc1c(-c2ccccc2)c(-c2ccccc2)n(-c2ccccc2)c1COC(=O)NC measured_on=P388 assay_value=-0.2

Turning to the following compound.
`CNC(=O)OCc1c(COC(=O)NC)c(-c2ccccc2)n(C)c1C` has a reported Weight loss of -3.3

###

Tested on: P388
experiment summary: Animal weight loss was tested for P388 Lymphocytic Leukemia and measured for change in weight, in treated and control mice at dose of 100 mg/kg
Format: functional, Mus musculus
Design: unit not given here
endpoint name: Weight loss
Answers are plain numbers.

Solved cases below.
molecular_string=CNC(=O)OCc1c(-c2ccccc2)c(-c2ccccc2)n(-c2ccc(OC)cc2)c1COC(=O)NC endpoint_name="Weight loss" assay_value=-1
molecular_string=CNC(=O)OCc1c(COC(=O)NC)c(-c2ccccc2)n(C)c1C endpoint_name="Weight loss" assay_value=-6
molecular_string=CNC(=O)OCc1c(-c2ccccc2)c(-c2ccccc2)n(C)c1COC(=O)NC endpoint_name="Weight loss" assay_value=-6.1

Turning to the following molecule.
`CNC(=O)OCc1c(-c2ccccc2)c(-c2ccccc2)n(-c2ccccc2)c1COC(=O)NC` has a reported Weight loss of -0.6

###

Record form. Attribute: No. of mice survived. Fill in for each entry.
Test system: P388
experiment summary: Toxicity against P388 Lymphocytic Leukemia and measured for number of mice survived after five days of 100 mg/kg drug administration out of 6 mice tested
Format: functional, Mus musculus

Hello, I would appreciate it if you could give No. of mice survived for each entry below.
1. CNC(=O)OCc1c(-c2ccccc2)c(-c2ccccc2)n(-c2ccc(OC)cc2)c1COC(=O)NC
2. CNC(=O)OCc1c(-c2ccccc2)c(-c2ccccc2)n(-c2ccccc2)c1COC(=O)NC
3. CNC(=O)OCc1c(COC(=O)NC)c(-c2ccccc2)n(C)c1C
4. CNC(=O)OCc1c(-c2ccccc2)c(-c2ccccc2)n(C)c1COC(=O)NC

A:
6
6
5
5

###

Record form. Attribute: Weight loss. Fill in for each entry.
Test system: P388
experiment summary: Animal weight loss was tested for P388 Lymphocytic Leukemia and measured for change in weight, in treated and control mice at dose of 25 mg/kg
Type: functional, Mus musculus
Design: unit not given here

Solved cases below.
molecular_string=CNC(=O)OCc1c(-c2ccccc2)c(-c2ccccc2)n(-c2ccccc2)c1COC(=O)NC assay_value=0.1
molecular_string=CNC(=O)OCc1c(COC(=O)NC)c(-c2ccccc2)n(C)c1C assay_value=-3.9

Hello, I would appreciate it if you could give Weight loss for each entry below.
1. CNC(=O)OCc1c(-c2ccccc2)c(-c2ccccc2)n(-c2ccc(OC)cc2)c1COC(=O)NC
2. CNC(=O)OCc1c(-c2ccccc2)c(-c2ccccc2)n(C)c1COC(=O)NC

A:
1: 0.5; 2: -3.2
